Source of measurements: paper PMC11117652

system: cAMP-related PDEs; assay: GloSensor live-cell screening model targeting cAMP (pGloSensor-22F cAMP plasmid in HEK293T cells, forskolin-stimulated); assay type: cell-based, human; details: cAMP cell screening model; (experimental group - blank control)/blank control luminescence x 100%; compound concentration not given
Binary call on Luminescence Signal (%) with cut-off 60%: strictly below means True, and equality or higher means False.

{"MOLECULE": "COc1ccccc1C=Cc1ccc(N(C)C)cc1 [Compound 5]", "CLASS_NAME": "True"}
{"MOLECULE": "Clc1cccc(Cl)c1C=Cc1ccccn1 [Compound 1]", "CLASS_NAME": "False"}
{"MOLECULE": "COc1cc(C=Cc2ccccn2)cc(OC)c1OC [Compound 2]", "CLASS_NAME": "True"}
{"MOLECULE": "COc1cc(C=Cc2ccncc2)cc(OC)c1OC [Compound 4]", "CLASS_NAME": "False"}
{"MOLECULE": "COc1ccc(C2CNC(=O)C2)cc1OC1CCCC1 (centres unmarked) [Rolipram, rolipram, reference compound]", "CLASS_NAME": "False"}
{"MOLECULE": "CC(=O)O[C@@H]1C(=O)CCC2=CCC[C@H](C)[C@@]2(C)/C=C\\1C [Compound 6, 4-acetoxy-2,8-neolemnadien-5-one]", "CLASS_NAME": "True"}
{"MOLECULE": "Cc1c(O)c(C)c2c(c1O)C(=O)O[C@](C)(O)[C@H]2C [Compound 7, (3S,4S)-sclerotinin A]", "CLASS_NAME": "True"}
{"MOLECULE": "COc1cc(C=Cc2cccnc2)cc(OC)c1OC [Compound 3]", "CLASS_NAME": "False"}
